- system tested: Serine protease 1 (Homo sapiens)
- Sequence (P07477 whole entry): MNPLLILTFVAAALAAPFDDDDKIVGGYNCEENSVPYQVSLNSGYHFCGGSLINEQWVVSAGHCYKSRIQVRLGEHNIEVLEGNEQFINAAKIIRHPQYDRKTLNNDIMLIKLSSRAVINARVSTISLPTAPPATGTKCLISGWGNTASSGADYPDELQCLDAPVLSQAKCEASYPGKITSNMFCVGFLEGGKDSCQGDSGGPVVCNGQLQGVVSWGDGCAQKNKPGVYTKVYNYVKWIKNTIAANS
- method summary: Inhibition of trypsin by amidase assay.
pKi: −log10 of the molar value.
recorded metric: pKi

Examples with their reported pKi follow.
// sample Cl.N=C(N)c1ccc(NCCCCNc2ccc(C(=N)N)cc2N)c(N)c1 , its pKi was 4.95

// sample Cl.Cl.N=C(N)c1ccc(OCCCOc2ccc(C(=N)N)cc2N)c(N)c1 , its pKi was 5.24

// sample Cl.N=C(N)c1ccc(NCCCCNc2ccc(C(=N)N)cc2)cc1 , its pKi was 5.80

[A] Cl.N=C(N)c1ccc(NCCCCCCNc2ccc(C(=N)N)cc2N)c(N)c1
[B] Cl.N=C(N)c1ccc(OCCCCOc2ccc(C(=N)N)cc2N)c(N)c1
stdin: I'm curious, which of these has a smaller pKi number: A or B ? Your answer should be the label of the entry you select.
stdout: B
